Just for reference, paper PMC5050486 is where these values come from.

# SYSTEM TESTED: calpain 1 (Homo sapiens, UniProt P07384)
# Construct: purchased BioVision
# Sequence (P07384 whole entry): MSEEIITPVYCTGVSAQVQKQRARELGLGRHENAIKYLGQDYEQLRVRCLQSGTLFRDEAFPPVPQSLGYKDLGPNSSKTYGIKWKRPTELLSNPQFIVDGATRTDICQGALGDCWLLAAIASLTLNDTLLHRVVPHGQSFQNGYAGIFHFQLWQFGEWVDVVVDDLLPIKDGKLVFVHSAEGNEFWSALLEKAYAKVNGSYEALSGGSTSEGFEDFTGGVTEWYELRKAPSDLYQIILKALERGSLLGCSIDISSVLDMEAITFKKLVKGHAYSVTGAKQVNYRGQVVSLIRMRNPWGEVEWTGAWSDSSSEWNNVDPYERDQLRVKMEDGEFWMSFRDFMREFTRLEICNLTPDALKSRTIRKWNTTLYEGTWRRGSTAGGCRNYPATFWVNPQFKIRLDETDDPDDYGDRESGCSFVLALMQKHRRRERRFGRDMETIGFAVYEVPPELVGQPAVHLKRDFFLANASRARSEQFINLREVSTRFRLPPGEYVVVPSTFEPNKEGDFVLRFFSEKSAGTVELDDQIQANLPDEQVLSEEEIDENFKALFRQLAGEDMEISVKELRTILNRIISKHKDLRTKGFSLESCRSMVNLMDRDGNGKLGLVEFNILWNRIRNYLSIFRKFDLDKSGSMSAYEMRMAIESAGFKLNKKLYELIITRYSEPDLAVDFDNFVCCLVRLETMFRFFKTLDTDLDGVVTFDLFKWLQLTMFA
# Sequence (P04632 whole entry partner): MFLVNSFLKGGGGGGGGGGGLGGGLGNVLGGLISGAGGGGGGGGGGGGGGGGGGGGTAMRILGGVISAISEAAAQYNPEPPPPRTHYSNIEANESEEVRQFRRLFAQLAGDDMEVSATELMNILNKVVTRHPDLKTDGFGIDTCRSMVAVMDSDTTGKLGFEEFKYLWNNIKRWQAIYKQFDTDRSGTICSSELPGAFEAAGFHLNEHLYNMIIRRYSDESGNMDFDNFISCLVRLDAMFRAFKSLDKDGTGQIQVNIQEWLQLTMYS
# TEST NAME: Host protease FRET test, calpain
# Format: biochemical
# TEST SETTINGS: 33 μM drug, FRET; N/I = no FRET inhibition; read-out: Percent Inhibition with 33 μM of drug, Calpain
PROPERTY LABEL: inhibition at 33 µM (%)
Report the figure in % without appending any unit label.

Prompt: API: value(readout=inhibition at 33 µM, system=calpain 1 (Homo sapiens, UniProt P07384)) for record CCCCCCCCCCCCCCCC[N+](C)(C)Cc1ccccc1 [Cetalkonium chloride]
Response: 68

Prompt: Try this compound too: CCCCCCCCCCCCCCCC(=O)OC[C@H](O)[C@H]1OC(=O)C(O)=C1O [Ascorbic acid 6-palmitate]
Response: 24

Prompt: Continue with CCCCCCCCCCCCc1ccccc1S(=O)(=O)O [Sodium dodecyl benzenesulfonate]
Response: 26

Prompt: Next: CCCCC(CC)COC(=O)CC(C(=O)OCC(CC)CCCC)S(=O)(=O)O (stereo not shown) [Docusate sodium]
Response: 130

====

# SYSTEM TESTED: human furin (Homo sapiens)
# Construct: purchased New England Biolabs
# Sequence (P09958 108-794): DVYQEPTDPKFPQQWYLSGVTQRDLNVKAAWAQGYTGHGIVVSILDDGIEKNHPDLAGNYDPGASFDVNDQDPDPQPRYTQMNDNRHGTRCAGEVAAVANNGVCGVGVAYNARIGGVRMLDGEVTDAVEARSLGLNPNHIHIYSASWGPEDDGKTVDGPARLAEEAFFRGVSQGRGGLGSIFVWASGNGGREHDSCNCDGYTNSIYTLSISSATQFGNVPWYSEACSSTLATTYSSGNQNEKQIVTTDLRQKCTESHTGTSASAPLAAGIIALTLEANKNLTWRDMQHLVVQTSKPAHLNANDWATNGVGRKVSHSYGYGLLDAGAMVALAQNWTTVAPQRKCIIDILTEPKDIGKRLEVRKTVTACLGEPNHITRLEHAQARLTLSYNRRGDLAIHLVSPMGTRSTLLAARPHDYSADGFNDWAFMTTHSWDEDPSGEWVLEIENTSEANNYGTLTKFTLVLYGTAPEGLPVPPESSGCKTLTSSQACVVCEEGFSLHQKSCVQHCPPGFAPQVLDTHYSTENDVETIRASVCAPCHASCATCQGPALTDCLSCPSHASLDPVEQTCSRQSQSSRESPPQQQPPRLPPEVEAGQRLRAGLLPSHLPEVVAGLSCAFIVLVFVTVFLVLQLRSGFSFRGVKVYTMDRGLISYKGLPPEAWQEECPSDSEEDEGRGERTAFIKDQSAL
# TEST NAME: Host protease FRET test, furin
# Type: biochemical
# TEST SETTINGS: 33 μM drug, FRET; N/I = no FRET inhibition; read-out: Percent Inhibition with 33 μM of drug, Furin
Where no end group is shown, it is not given here.
PROPERTY LABEL: inhibition at 33 µM (%)
Write the number in % without appending the unit.

Prompt: # inhibition at 33 µM lookup, item RRRRRGGRRRR [Salmon Sperm Protamine (23-33)]
Response: 150

Prompt: How about this sequence: PVRRRRRPRVSRRRRRRGGRRRR [Salmon Sperm Protamine (11-33)]
Response: 86

Prompt: Next sequence up: MARYRCCRSQSRSRYYRQRQRSRRRRRRSCQTRRRAMRCCRPRYRPRCRRH (cysteines drawn unpaired) [Human Sperm Protamine (1-51)]
Response: 97

Prompt: And what about the sequence MPRRRRSSSRPVRRRRRPRVSR [Salmon Sperm Protamine (1-22)] ?
Response: 91

Prompt: Then what about the sequence PVRRRRRPRVSR [Salmon Sperm Protamine (11-22)] ?
Response: 84

Prompt: Let us now turn to MPRRRRSSSRPVRRRRRPRVSRRRRRRGGRRRR [Salmon Sperm Protamine]
Response: 96

====

# SYSTEM TESTED: caspase-1 (Homo sapiens, UniProt P29466)
# Construct: purchased BioVision
# Sequence (P29466 120-404): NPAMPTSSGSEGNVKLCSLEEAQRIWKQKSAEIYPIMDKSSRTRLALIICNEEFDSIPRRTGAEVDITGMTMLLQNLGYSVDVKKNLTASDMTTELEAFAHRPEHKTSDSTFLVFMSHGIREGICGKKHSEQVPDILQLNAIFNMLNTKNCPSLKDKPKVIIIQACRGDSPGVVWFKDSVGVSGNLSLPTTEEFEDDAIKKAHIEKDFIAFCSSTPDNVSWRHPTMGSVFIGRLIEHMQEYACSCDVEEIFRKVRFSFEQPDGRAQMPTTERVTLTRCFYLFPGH
# TEST NAME: Host protease FRET test, caspase-1
# Format: biochemical
# TEST SETTINGS: 33 μM drug, FRET; N/I = no FRET inhibition; read-out: Percent Inhibition with 33 μM of drug, Casp 1
For each record, write down the corresponding inhibition at 33 µM.
Kindly provide the numeric value in % only, without the unit symbol.

Prompt: // returns reported inhibition at 33 µM for input CCCCCCCCCCCC[N+](C)(C)CCOc1ccccc1 [Domiphen bromide]
Response: 17

Prompt: Here is the next compound: CCCCCCCCCCCCCCCC(=O)OC[C@H](O)[C@H]1OC(=O)C(O)=C1O [Ascorbic acid 6-palmitate]
Response: 18

Prompt: Same again, this time with CCCCCCCCCCCCc1ccccc1S(=O)(=O)O [Sodium dodecyl benzenesulfonate]
Response: 14

Prompt: Now the same for CCCCCCCCCCCCCCCC[N+](C)(C)Cc1ccccc1 [Cetalkonium chloride]
Response: 32

Prompt: Same for CCCCC(CC)COC(=O)CC(C(=O)OCC(CC)CCCC)S(=O)(=O)O (stereo not drawn) [Docusate sodium]
Response: 35

Prompt: Now try CCOc1nc2cccc(C(=O)OC(C)OC(=O)OC3CCCCC3)c2n1Cc1ccc(-c2ccccc2-c2nnn[nH]2)cc1 (stereo not drawn) [Candesartan cilexetil] .
Response: 16
